# TARGET DESC: human ether-à-go-go-related gene (hERG) potassium channel (human)
# ASSAY: primary screen, population patch clamp on CHO cells stably expressing hERG; higher = less effect of the substance
Hit rate of the full screen: of about 310,000 compounds, about 14,000 (4.5%) showed an effect of 50% or more. The effect is printed as a negative number. Many of the other results were omitted from the sample, so strong results are more common in it than they were.
Overview of recorded hERG current change (%, negative = inhibition) at 10uM for various compounds
Only the number, expressed in %, is required.

| COMPOUND | TARGET DESC | UNIT DESCRIPTOR | RECORDED MEASUREMENT |
| --- | --- | --- | --- |
| CCOc1ccc(OCC)c(S(=O)(=O)N2CCCCC2C)c1 (centres unmarked) | human ether-à-go-go-related gene (hERG) potassium channel (human) | % | -52.2 |
| Cc1cc(CNC(=O)c2cccnc2Cl)c2ccccc2n1 | human ether-à-go-go-related gene (hERG) potassium channel (human) | % | -2.82 |
| Cc1ccc(CN2CC(C(=O)Nc3cccc(S(=O)(=O)N4CCCCC4)c3)CC2=O)cc1 (centres unmarked) | human ether-à-go-go-related gene (hERG) potassium channel (human) | % | 6.85 |
| C/C(=C1/SC(=S)N(CCC(=O)O)C1=O)c1ccc(O)cc1 | human ether-à-go-go-related gene (hERG) potassium channel (human) | % | 9.74 |

Lookup: hERG current change (%, negative = inhibition) at 10uM for `Cc1cc(Oc2ccc(C#N)cc2)nc(NCc2ccccc2)n1` ?
Found: 2.36

----------
# TARGET DESC: human ether-à-go-go-related gene (hERG) potassium channel (human, UniProt Q12809);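 further: peak tail current of the secondary pulse compared with the same well before compound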
# Sequence (Q12809 whole entry, looked up): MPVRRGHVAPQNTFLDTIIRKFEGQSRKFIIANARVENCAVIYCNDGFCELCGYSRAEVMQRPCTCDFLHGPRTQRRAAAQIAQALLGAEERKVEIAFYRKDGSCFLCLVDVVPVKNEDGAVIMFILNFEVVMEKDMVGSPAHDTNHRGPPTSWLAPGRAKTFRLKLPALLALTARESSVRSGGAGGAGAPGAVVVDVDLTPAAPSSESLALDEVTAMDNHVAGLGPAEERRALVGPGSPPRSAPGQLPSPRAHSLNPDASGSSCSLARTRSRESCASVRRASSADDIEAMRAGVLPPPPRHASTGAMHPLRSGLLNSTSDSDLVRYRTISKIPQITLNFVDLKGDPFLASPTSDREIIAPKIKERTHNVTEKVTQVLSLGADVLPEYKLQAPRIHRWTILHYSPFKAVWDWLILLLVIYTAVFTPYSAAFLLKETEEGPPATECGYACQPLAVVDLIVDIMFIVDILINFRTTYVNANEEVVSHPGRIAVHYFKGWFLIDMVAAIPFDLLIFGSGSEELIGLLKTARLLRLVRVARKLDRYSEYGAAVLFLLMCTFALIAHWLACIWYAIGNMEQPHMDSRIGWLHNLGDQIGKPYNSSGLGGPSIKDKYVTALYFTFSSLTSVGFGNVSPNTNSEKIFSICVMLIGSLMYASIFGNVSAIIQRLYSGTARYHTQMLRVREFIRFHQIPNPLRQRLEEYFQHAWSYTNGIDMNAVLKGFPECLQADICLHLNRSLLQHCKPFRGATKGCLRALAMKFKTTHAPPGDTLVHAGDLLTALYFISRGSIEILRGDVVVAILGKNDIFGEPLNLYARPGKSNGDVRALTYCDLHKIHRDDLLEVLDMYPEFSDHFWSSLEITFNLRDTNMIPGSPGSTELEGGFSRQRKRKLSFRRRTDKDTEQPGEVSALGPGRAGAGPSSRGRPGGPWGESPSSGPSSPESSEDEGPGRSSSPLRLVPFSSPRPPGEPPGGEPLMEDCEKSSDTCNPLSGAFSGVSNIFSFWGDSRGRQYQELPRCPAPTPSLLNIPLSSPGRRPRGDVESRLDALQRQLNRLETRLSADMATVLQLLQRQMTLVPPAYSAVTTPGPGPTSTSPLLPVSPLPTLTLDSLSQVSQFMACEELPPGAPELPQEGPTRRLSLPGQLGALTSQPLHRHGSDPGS
# ASSAY: primary screen, population patch clamp on CHO cells stably expressing hERG; higher = less effect of the substance
Among all 310,000 compounds or so, about 14,000 (4.5%) showed an effect of 50% or more. The effect is printed as a negative number. Shown is part of a subset that was picked to be rich in strong results.
Overview of recorded hERG current change (%, negative = inhibition) at 10uM for various compounds
Only the number, expressed in %, is required.

These solved cases illustrate the format of a correct answer.
| COMPOUND | UNIT DESCRIPTOR | RECORDED MEASUREMENT |
| --- | --- | --- |
| Cc1c(C(=O)O)cccc1-c1ccc(/C=N/Nc2ccc(Br)cc2)o1 | % | 30.2 |
| COc1cccc(CC(NC(C)=O)C(=O)NC2CCN(c3c(Cc4ccccc4)c(C)nc4ncnn34)CC2)c1 (stereo not shown) | % | -0.458 |

Lookup: hERG current change (%, negative = inhibition) at 10uM for COc1cc2c(c(OC)c1OC)-c1c(cc3c(c1OC)OCO3)C1OC2[C@@H](C)[C@H]1C (stereo partly shown) ?
Found: -4.76

Lookup: Query `COC(=O)c1[nH]c2cc(OC)ccc2c1NC(=O)CCN1CCN(c2cccc(C)c2C)CC1` next
Found: -16.4

Lookup: Query COc1cc(CC(NC(C)=O)C(=O)NC2CCN(c3c(Cc4ccccc4)c(C)nc4ncnn34)CC2)cc(OC)c1 (stereo not shown) next
Found: 12

Lookup: Query Cc1nc2ncnn2c(N2CCC(C(=O)NCC3CCCO3)CC2)c1Cc1ccccc1 (stereo not shown) next
Found: -17.6

Lookup: Query `CCOC(=O)c1[nH]c2cc3c(cc2c1NC(=O)CN1CCc2ccccc2C1)OCO3` next
Found: -0.934

Lookup: Query CCOC(=O)C1CCCN(CCC(=O)Nc2c(C(=O)OC)[nH]c3cc(OC)ccc23)C1 (stereo not shown) next
Found: -59.6

----------
# TARGET DESC: human ether-à-go-go-related gene (hERG) potassium channel (human);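 further: peak tail current of the secondary pulse compared with the same well before compound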
# ASSAY: primary screen, population patch clamp on CHO cells stably expressing hERG; higher = less effect of the substance
Hit rate of the full screen: of about 310,000 compounds, about 14,000 (4.5%) showed an effect of 50% or more. The effect is printed as a negative number. Shown is part of a subset that was picked to be rich in strong results.
ASSAY METRIC: hERG current change (%, negative = inhibition) at 10uM (%)
Only the number, expressed in %, is required.

| SMILES CODE | TARGET DESC | RECORDED MEASUREMENT |
| --- | --- | --- |
| CCOC(=O)N1CCN(Cc2nc3cc(NC(=O)CC(C)C)ccc3n2CC)CC1 | human ether-à-go-go-related gene (hERG) potassium channel (human) | -8.18 |

Lookup: hERG current change (%, negative = inhibition) at 10uM for `CCOC(=O)c1sc(NC(=O)CN2CCCC2)c(C(=O)OCC)c1C` ?
Found: -6.37

Lookup: Query `Cc1ccnc(NC(=O)CC(c2ccccc2)c2ccccc2)n1` next
Found: 30.5

Lookup: Query `C[C@]12C(=O)N(c3ccc(Cl)cc3)C(=O)N1[C@@H]1c3ccccc3OC[C@@H]1[C@H]2c1ccccc1` next
Found: 8.19

Lookup: Query `CCCn1c(CN2CCN(C(=O)OCC)CC2)nc2cc(NC(C)=O)ccc21` next
Found: 12.8

Lookup: Query `CC(=O)Nc1nc(C)c(Oc2ccc(Cl)cc2Cl)c(=O)[nH]1` next
Found: 10.5

----------
# TARGET DESC: human ether-à-go-go-related gene (hERG) potassium channel (human);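 further: peak tail current of the secondary pulse compared with the same well before compound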
# ASSAY: primary screen, population patch clamp on CHO cells stably expressing hERG; higher = less effect of the substance
The whole screen tested about 310,000 compounds, of which about 14,000 (4.5%) showed an effect of 50% or more. Effects have a minus sign here. The full list was thinned out, with strong results kept by preference.
ASSAY METRIC: hERG current change (%, negative = inhibition) at 10uM (%)
Only the number, expressed in %, is required.

These solved cases illustrate the format of a correct answer.
| COMPOUND | UNIT DESCRIPTOR | RECORDED MEASUREMENT |
| --- | --- | --- |
| CCCn1c(N)c(C(=O)CSc2nnnn2-c2ccc(O)cc2)c(=O)n(C)c1=O | % | 5.2 |
| CCCc1cc(=O)oc2cc(C)cc(OC(C)C(=O)NCc3ccncc3)c12 (stereo not shown) | % | -69.5 |
| O=C(COC(=O)c1nc(Cl)ccc1Cl)Nc1ccc2c(c1)OCO2 | % | -3.62 |
| CN1CCN(c2nc(-c3ccncc3)nc3ccccc23)CC1 | % | -67.4 |
| Cc1ccc(-n2nnnc2SCC(=O)c2c(N)n(CC(C)C)c(=O)n(C)c2=O)cc1 | % | -69.1 |
| CCCc1cc(=O)oc2cc(C)cc(OC(C)C(=O)NCc3cccnc3)c12 (stereo not shown) | % | -47.3 |
| NC(=O)C1CCN(c2nc(-c3ccccc3)nc3ccccc23)CC1 | % | -56 |
| CC(C)Cn1c(N)c(C(=O)COC(=O)c2ccc([N+](=O)[O-])o2)c(=O)n(C)c1=O | % | -69.5 |

Lookup: hERG current change (%, negative = inhibition) at 10uM for `CC(C)Cn1c(N)c(C(=O)COC(=O)CCc2nc3ccccc3s2)c(=O)n(C)c1=O` ?
Found: -69.3

Lookup: Query `CC(C)Cn1c(N)c(C(=O)COC(=O)c2cc(C(F)(F)F)nc3ccccc23)c(=O)n(C)c1=O` next
Found: 0.872

----------
# TARGET DESC: human ether-à-go-go-related gene (hERG) potassium channel (human, UniProt Q12809);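 further: peak tail current of the secondary pulse compared with the same well before compound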
# ASSAY: primary screen, population patch clamp on CHO cells stably expressing hERG; higher = less effect of the substance
Among all 310,000 compounds or so, about 14,000 (4.5%) showed an effect of 50% or more. The effect is printed as a negative number. Only a selection was taken, and strong results are over-represented in it overall.
Label yes (1) when hERG current change (%, negative = inhibition) at 10uM is at or above -30%; anything below gets no (0).

Worked examples, 4 compounds total:
| COMPOUND | GROUP LABEL |
| --- | --- |
| CS(=O)(=O)NNC(=O)Cn1nnc(-c2cc(C(F)(F)F)cc(C(F)(F)F)c2)n1 | yes (1) |
| Cn1ccc(C(=O)Nc2ccc3c(c2)OCCO3)n1 | yes (1) |
| Cn1ncc(Cl)c1C(=O)N/N=C/c1cccc(OC2CSC2)c1 | yes (1) |
| CCc1nn(C(C)C(=O)NCCN2CCCCCC2)c(=O)c2cc3occc3n12 (stereo not shown) | yes (1) |

Lookup: Does `C=CCn1c(SCC(=O)NC2CCCC2)nc2c([nH]c3ccccc32)c1=O` have a reported hERG current change (%, negative = inhibition) at 10uM of at least -30%?
Found: no (0)

Lookup: Query `CCc1ccc(-c2cc3c(=O)n(CC(=O)NCCCN4CCC(Cc5ccccc5)CC4)nc(C)n3n2)cc1` next
Found: yes (1)

Lookup: Query `Cc1nn(CC(=O)NCCCN2CCN(Cc3ccccc3)CC2)c(=O)c2cc(-c3ccccc3)nn12` next
Found: no (0)

Lookup: Query CCc1nn(C(C)C(=O)NCCN2CCN(c3cccc(C)c3C)CC2)c(=O)c2cc3occc3n12 (stereo not shown) next
Found: no (0)

Lookup: Query `Cc1nn(CC(=O)NCCCN2CCCCC2)c(=O)c2cc(-c3ccccc3)nn12` next
Found: no (0)
